test system: Calu-3; test: cell viability relative to DMSO; higher = less toxic; conditions: 72 h; 10 nM
Recorded cell viability values for a group of compounds are listed next.
experimental_readout: cell viability (%)

[[record]]
compound = "CC(C)C[C@@H](N)C(=O)N[C@H]1C(=O)N[C@@H](CC(N)=O)C(=O)N[C@H]2C(=O)N[C@H]3C(=O)N[C@H](C(=O)N[C@H](C(=O)O)c4cc(O)cc(O)c4-c4cc3ccc4O)[C@H](O)c3ccc(c(Cl)c3)Oc3cc2cc(c3O[C@@H]2O[C@H](CO)[C@@H](O)[C@H](O)[C@H]2O[C@H]2C[C@](C)(N)[C@H](O)[C@H](C)O2)Oc2ccc(cc2Cl)[C@H]1O [norvancomycin]"
value_reported = 100

[[record]]
compound = "Cc1cc(OCCN2CCOCC2)nn1-c1ccc2ccccc2c1 [API-001]"
value_reported = 83.4

[[record]]
compound = "CC(C)[C@H]1C(=O)N[C@@H](CCCNC(=N)N)C(=O)NCC(=O)N[C@@H](CC(=O)O)C(=O)N[C@H](Cc2ccccc2)C(=O)N1C [cilengitide]"
value_reported = 94.3

[[record]]
compound = "Cn1cc(-c2[nH]c3cc(NC(=O)[C@H](N)C4CCCCC4)cc4c3c2C=NNC4=O)cn1"
value_reported = 98.7

[[record]]
compound = "Nc1ccc(-c2nc3ccc(-c4nc5ccc(N)cc5[nH]4)cc3[nH]2)cc1 [Ro-90-7501]"
value_reported = 105

[[record]]
compound = "CNc1ncc2cc(-c3cc(NC(=O)NCCC(C)(C)C)c(F)cc3C)c(C)nc2n1"
value_reported = 106

[[record]]
compound = "CSc1ccc2c(c1)N(CCC1CCCCN1C)c1ccccc1S2 (stereo unspecified) [thioridazine]"
value_reported = 110

[[record]]
compound = "Cc1ccc2c(=O)c3ccccc3n(CCCN)c2c1C"
value_reported = 102

[[record]]
compound = "CN(C)CC(c1ccc(O)cc1)C1(O)CCCCC1 (stereo unspecified) [desvenlafaxine]"
value_reported = 110

[[record]]
compound = "CC(C)(C)c1cc(C=C(C#N)C#N)cc(C(C)(C)C)c1O [tyrphostin-A9]"
value_reported = 96.3

[[record]]
compound = "CCN(CC)CCOC(=O)c1cc(Cl)c(N)cc1OC [SDZ-205-557]"
value_reported = 101

[[record]]
compound = "Fc1ccc(Cl)cc1-c1nc(Nc2ccncc2)c2nccnc2n1 [SD-208]"
value_reported = 94.9

[[record]]
compound = "CN(C)[C@@H](CCOc1cccc2ccccc12)c1ccccc1 [dapoxetine]"
value_reported = 104

[[record]]
compound = "O[C@@H](COc1cccc2ncccc12)CN1CCN([C@@H]2c3ccccc3[C@@H]3[C@H](c4ccccc42)C3(F)F)CC1 [zosuquidar]"
value_reported = 108

[[record]]
compound = "C[C@@H](O)[C@H]1C(=O)N2C(C(=O)O)=C([C@H]3CCCO3)S[C@H]12 [faropenem]"
value_reported = 96.5

[[record]]
compound = "N#CCC1(n2cc(-c3ncnc4[nH]ccc34)cn2)CN(C2CCN(C(=O)c3ccnc(C(F)(F)F)c3F)CC2)C1 [itacitinib]"
value_reported = 104

